Biological target: ΔF508-CFTR (Homo sapiens, UniProt P13569, DEL508-508)
Construct: host or cells: CFBE41o-, doxycycline-inducible
Sequence (P13569 with tags, fused parts or gaps DEL508-508): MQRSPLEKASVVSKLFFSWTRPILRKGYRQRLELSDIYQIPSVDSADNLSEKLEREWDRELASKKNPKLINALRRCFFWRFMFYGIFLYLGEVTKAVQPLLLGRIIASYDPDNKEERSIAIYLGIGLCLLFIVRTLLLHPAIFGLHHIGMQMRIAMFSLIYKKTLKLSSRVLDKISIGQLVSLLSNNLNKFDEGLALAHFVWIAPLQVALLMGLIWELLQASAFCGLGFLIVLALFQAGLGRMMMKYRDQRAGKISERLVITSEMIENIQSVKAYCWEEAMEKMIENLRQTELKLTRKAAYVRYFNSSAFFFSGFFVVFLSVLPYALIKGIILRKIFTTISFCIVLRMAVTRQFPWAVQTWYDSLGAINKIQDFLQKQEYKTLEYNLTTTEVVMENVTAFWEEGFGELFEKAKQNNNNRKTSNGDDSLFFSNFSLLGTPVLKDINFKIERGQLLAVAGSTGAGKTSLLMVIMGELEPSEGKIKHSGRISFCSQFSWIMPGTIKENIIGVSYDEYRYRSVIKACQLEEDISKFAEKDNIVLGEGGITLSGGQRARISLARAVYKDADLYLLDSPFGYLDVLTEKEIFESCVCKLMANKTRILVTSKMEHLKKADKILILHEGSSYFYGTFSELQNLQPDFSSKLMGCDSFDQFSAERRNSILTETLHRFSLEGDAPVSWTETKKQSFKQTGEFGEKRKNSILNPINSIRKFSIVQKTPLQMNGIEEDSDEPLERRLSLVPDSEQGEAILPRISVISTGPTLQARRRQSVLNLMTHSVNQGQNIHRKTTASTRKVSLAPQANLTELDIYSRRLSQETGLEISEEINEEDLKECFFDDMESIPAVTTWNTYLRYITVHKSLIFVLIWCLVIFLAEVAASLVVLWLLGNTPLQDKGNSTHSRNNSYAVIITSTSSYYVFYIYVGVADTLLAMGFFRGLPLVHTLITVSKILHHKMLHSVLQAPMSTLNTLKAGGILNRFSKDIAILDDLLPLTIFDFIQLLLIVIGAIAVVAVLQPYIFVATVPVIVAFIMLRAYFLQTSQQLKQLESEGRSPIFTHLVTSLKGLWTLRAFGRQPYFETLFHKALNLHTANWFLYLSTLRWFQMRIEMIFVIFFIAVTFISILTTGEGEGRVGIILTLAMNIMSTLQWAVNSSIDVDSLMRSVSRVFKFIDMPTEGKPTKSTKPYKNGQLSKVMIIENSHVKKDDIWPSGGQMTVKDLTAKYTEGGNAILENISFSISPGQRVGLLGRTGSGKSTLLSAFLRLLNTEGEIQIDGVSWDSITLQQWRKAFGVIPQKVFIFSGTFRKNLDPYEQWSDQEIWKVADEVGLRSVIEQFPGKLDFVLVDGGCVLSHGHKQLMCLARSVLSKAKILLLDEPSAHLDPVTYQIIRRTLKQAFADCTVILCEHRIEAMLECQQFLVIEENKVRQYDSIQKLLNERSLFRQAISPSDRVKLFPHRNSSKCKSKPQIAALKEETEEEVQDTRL
Assay: CFTR cell surface levels using HRP-tagged ΔF508-CFTR expressing CFBE cells, intrinsic corrector capacity
Format: cell-based
Details: HRP-tagged ΔF508-CFTR CFBE41o- cells, compounds alone (intrinsic corrector capacity), 20 hours at 33° C.; positive control 3 μM corrector
Checkbox rule: % Activation lower than 200% = 1; % Activation not lower than 200% = -1.

Example entries begin here.
| compound | system | label class |
| --- | --- | --- |
| CC(C)c1nn(C2CCCCC2)c2nc(C(=O)O)cc(-c3cccn3C)c12 | ΔF508-CFTR (Homo sapiens, UniProt P13569, DEL508-508) | 1 |
| CN(c1ccc(-c2cc(C(=O)O)nc3c2c(C2CCC2)nn3-c2cccc(N3CCCC3)c2)cc1)C1CCOCC1 | ΔF508-CFTR (Homo sapiens, UniProt P13569, DEL508-508) | -1 |
| CC(C)c1nn(-c2cccc(C#N)c2)c2nc(C(=O)O)cc(-c3ccc(N4CCOCC4)cc3)c12 | ΔF508-CFTR (Homo sapiens, UniProt P13569, DEL508-508) | 1 |
| Cc1nn(-c2ccccc2)c2nc(C(=O)O)cc(-c3ccc(N4CCN(CC#N)CC4)cc3)c12 | ΔF508-CFTR (Homo sapiens, UniProt P13569, DEL508-508) | 1 |
| Cc1nn(-c2ccccc2)c2nc(C(=O)O)cc(-c3ccc(N4CC5CCC(C4)O5)cc3)c12 | ΔF508-CFTR (Homo sapiens, UniProt P13569, DEL508-508) | 1 |
| CC(C)c1nn(C2CCCCC2)c2nc(C(=O)O)cc(-c3ccnn3C)c12 | ΔF508-CFTR (Homo sapiens, UniProt P13569, DEL508-508) | 1 |

Input line: I wonder whether CC(C)c1nn(-c2cccc(N3CCC(F)C3)c2)c2nc(C(=O)O)cc(-c3ccc(N4CCOCC4)cc3)c12 (stereo not shown) has % Activation below 200%. Can you tell?
Output line: -1

Input line: Record: O=C(O)c1cc(-c2ccc(N3CCOCC3)cc2)c2c(C3CCCO3)nn(-c3ccccc3)c2n1 (stereo not shown)
Output line: 1

Input line: Could you do the same for COC1CCN(c2cc(C(=O)O)nc3c2c(C(C)C)nn3-c2cccc(N(C)C)c2)CC1 , please?
Output line: -1

Input line: Try the compound COCC1CCCN(c2cc(C(=O)O)nc3c2c(C2CCC2)nn3-c2ccccc2)C1 (stereo not shown)
Output line: 1

Input line: // next record COCC1CN(c2cc(C(=O)O)nc3c2c(C)nn3-c2ccccc2)C1
Output line: 1

###

Biological target: ΔF508-CFTR (Homo sapiens, UniProt P13569, DEL508-508)
Construct: host or cells: CFBE41o-, doxycycline-inducible
Test: CFTR cell surface levels using HRP-tagged ΔF508-CFTR expressing CFBE cells, in the presence of a co-corrector
Format: cell-based
Details: HRP-tagged ΔF508-CFTR expressing CFBE cells, in the presence of 3 μM co-corrector; read-out: EC50
endpoint name: EC50 (µM)
Please respond with the number in µM and leave the unit unwritten.

| molecule | EC50 (µM) |
| --- | --- |
| O=C(O)c1cc(N2CCC3C(CCN3C3COC3)C2)c2c(C3CCC3)nn(-c3ccc(F)cc3)c2n1 (stereo not shown) | 0.114 |
| O=C(O)c1cc(N2C[C@H](O)[C@@H](O)C2)c2c(C3CCC3)nn(-c3ccccc3)c2n1 | 3.34 |

Please examine the following record next.
Input line: Consider the molecule COCCN(C)c1ncc(-c2cc(C(=O)O)nc3c2c(C(C)C)nn3C2CCCCC2)cn1 and give its measured EC50.
Output line: 0.324
